test system: HL-60(TB) leukemia; experiment: NCI-60 one-dose screen, 48 h; details: 10 µM unless noted
Compounds without any hit were thinned out: in the full panel of roughly 83,000, 20% have a hit. Calls of active or inactive are those of the source. The calls were made as follows: active = growth percent below 10; inactive = the rest.
Possible outcomes: active, inactive

* CCOC(=O)c1cc(-c2ccc([N+](=O)[O-])cc2)n(-c2ccc(C(=O)O)c(O)c2)c1C | inactive
* CCN(CC)CCCNc1ccc(Nc2ccc(OC)cc2)cc1 | active
* Cc1c(O)c(N=Nc2ccc(C(=O)O)c(O)c2)c2ccccc2c1O | inactive
* CC(=O)Nc1nc(C)c(C(=O)NNS(=O)(=O)c2ccccc2)s1 | inactive
* COc1nccc2cc3c(=O)n4c(cc5ccccc54)c(=O)n3c12 | inactive
* CCOC(=O)c1c(C)oc2ncnc(N3CCN(C(=S)Nc4ccccc4)CC3)c12 | inactive
* CS(=O)(=O)c1cccc(-c2c(-c3cccc(OS(N)(=O)=O)c3)nc3sccn23)c1 | inactive
* COc1cc(-c2cc(=O)oc3cc(O)ccc23)cc(OC)c1OC | inactive
* COc1ccc(-n2nnc(C(=O)NCCc3c[nH]c4ccc(F)cc34)c2C)cc1 | inactive
* O=C(NN1C(=O)CSC1c1ccc(Cl)cc1)c1[nH]c2ccc(F)cc2c1-c1ccccc1 (centres undefined) | inactive
* CCc1[nH]nc(-c2ccc(OC)cc2)c1-c1ccccc1OCCN(CC)CC | inactive
* Cc1nnc(NC(=O)c2nc(S(=O)(=O)Cc3ccc(F)cc3)ncc2Cl)s1 | active
* COc1ccc(/C=C/C(=O)c2cccc(NS(C)(=O)=O)c2)cc1 | inactive
* COc1cc(Nc2ccnc3ccc(Br)cc23)cc(OC)c1OC | inactive
* CCOC(CN1CCN(CC(C)C(=O)c2ccccc2)CC1)c1ccccc1 (centres undefined) | inactive
* Cc1c(C2=NNC(c3ccc4c(c3)OCO4)C2)[n+]([O-])c2ccccc2[n+]1[O-] (centres undefined) | inactive
* Cc1cc(O)c2c(c1)C[C@H]1[C@@H]3CC[C@H]4CC(=O)CC[C@]4(C)[C@H]3CC(=O)[C@]21C | inactive
* COC(=O)c1cc(-c2ccc(OC)cc2)[nH]c1N/N=C/c1c(Cl)cccc1Cl | active
* C#CC[C@@H]1C[C@]2(C)[C@H]3CC=C4[C@H]5[C@@H](C)[C@H](C)CC[C@]5(C(=O)NCCCCN)CC[C@@]4(C)[C@]3(C)CC[C@H]2C(C)(C)[C@H]1OC(C)=O | inactive
* C[C@]12CC[C@@H]3c4ccc(O)cc4CC[C@H]3[C@@H]1C[C@H](O)[C@@H]2O | inactive
* COc1ccccc1C(=O)/C=C/c1cc2cccc(OC)c2[nH]c1=O | active
* CC(=O)c1cccc(OC(=O)c2ccccc2)c1 | inactive
* N#CC1=C(c2ccc(Br)cc2)NC(SCC(=O)c2ccc(Br)cc2)NC1=O (centres undefined) | inactive
* COc1ccc(C2CC(c3cccs3)=NN2c2ccc(S(=O)(=O)NC(=O)Nc3ccc(C)cc3)cc2)cc1 (centres undefined) | inactive
* COc1ccc2nc(-c3ccc(Cl)cc3)cc(-c3nnc(SCC(=O)Nc4ccc(/C(C)=N\O)cc4)o3)c2c1 | inactive
* O=c1c2ccccc2c2nccn2c2cc(Cl)ccc12 | inactive
* COc1ccc(-c2ccc(-c3ccc(C(=N)N)c(F)c3)s2)cc1 | active
* COc1ccc([C@H]2[C@@H](F)C(=O)N2c2cc(OC)c(OC)c(OC)c2)cc1F | active
* C#CC[C@@H]1C[C@]2(C)[C@H]3CC=C4[C@H]5CC(C)(C)CC[C@]5(C(=O)NCCCCN)CC[C@@]4(C)[C@]3(C)CC[C@H]2C(C)(C)[C@H]1OC(C)=O | active
* Cn1c2c(c3ccc(Cl)cc31)-n1cccc1C2=O | inactive
* CC(C)(C)[Si](C)(C)O[C@H]1C(=O)C=CN2CC=C[C@@H]12 | inactive
* CCCCN1C(=O)c2cccc3c(-c4ccc5c(c4)ncn5C4CCCCC4)ccc(c23)C1=O | inactive
* OB(O)c1cccc(-c2nc3ccc4[nH]ncc4c3c3c2CCCC3)c1 | inactive
* O=C1/C(=C/c2ccc(-c3ccc(Br)cc3)o2)SC(=S)N1CCc1ccc(O)cc1 | inactive
* CCN1CCN(Cc2ccc(NC(=O)c3cccc(C#Cc4cccc5[nH]nc(N)c45)c3)cc2C(F)(F)F)CC1 | active
* CCCCCCC1(C)NCCO1 (centres undefined) | inactive
* CN1CCN(c2nc(NCCCCNc3ccnc4cc(Cl)ccc34)c3ccccc3n2)CC1 | inactive
* N#Cc1ncc(-c2cc(F)c(F)c(F)c2)c(NC2CCCCCC2)n1 | inactive
* O=C(Nc1ccc(-n2ccc3c(NC(=O)c4ccccc4)nccc32)cc1)c1ccc(N2CCOCC2)c(C(F)(F)F)c1 | inactive

Recorded values, source PubChem BioAssay (NCI).
